# measurement-target: Mu-type opioid receptor (Rattus norvegicus, UniProt P33535)
# Sequence (P33535 whole entry): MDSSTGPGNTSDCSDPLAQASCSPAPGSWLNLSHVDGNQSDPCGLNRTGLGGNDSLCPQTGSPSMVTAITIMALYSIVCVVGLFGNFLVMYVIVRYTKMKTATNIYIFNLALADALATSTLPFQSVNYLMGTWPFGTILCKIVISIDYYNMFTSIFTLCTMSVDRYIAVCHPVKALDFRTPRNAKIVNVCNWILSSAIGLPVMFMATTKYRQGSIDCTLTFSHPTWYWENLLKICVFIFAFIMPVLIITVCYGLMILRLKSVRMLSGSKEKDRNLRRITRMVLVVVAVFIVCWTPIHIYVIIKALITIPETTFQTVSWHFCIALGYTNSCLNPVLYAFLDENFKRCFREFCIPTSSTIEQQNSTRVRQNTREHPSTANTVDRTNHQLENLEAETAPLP
# assay-comment: Displacement of [3H]diprenorphine from opioid receptor mu 1 on crude membrane fractions obtained from whole rat brain (minus cerebellum)
# Assay type: tissue-based
Quick list: Ki per entry.
// note: answer is a bare numeric in µM

| molecule | Ki / µM |
| --- | --- |
| CC(C)CC(NC(=O)[C@]1(c2ccccc2)CC1CN1CC[C@@]2(C)c3cc(O)ccc3CC1C2C)C(=O)NCCCCCCN=C(N)N (some centres not stated) | 2.63 |
| CC(C)CC(NC(=O)CNC(=O)[C@]1(c2ccccc2)CC1CN1CC[C@@]2(C)c3cc(O)ccc3CC1C2C)C(=O)NCCCCCN (some centres not stated) | 10.9 |

Req: Entry CCCC(=N)NCCCNC(=O)C(CC(C)C)NC(=O)[C@]1(c2ccccc2)CC1CN1CC[C@@]2(C)c3cc(O)ccc3CC1C2C (some centres not stated) needs its Ki filled in; supply it.
Resp: 3.57

Req: Query Ki for CCCC(=N)NCCCCCNC(=O)C(CC(C)C)NC(=O)[C@]1(c2ccccc2)CC1CN1CC[C@@]2(C)c3cc(O)ccc3CC1C2C (some centres not stated)
Resp: 2

Req: Assign Ki to the following record: CCC(=N)NCCCCNC(=O)C(CC(C)C)NC(=O)[C@]1(c2ccccc2)CC1CN1CC[C@@]2(C)c3cc(O)ccc3CC1C2C (some centres not stated)
Resp: 2.2

Req: Give recorded Ki. CC(C)CC(NC(=O)CNC(=O)[C@]1(c2ccccc2)CC1CN1CC[C@@]2(C)c3cc(O)ccc3CC1C2C)C(=O)NCCCN (some centres not stated)
Resp: 16.1

Req: State, in one line, measured Ki of CCC(=N)NCCCCCCNC(=O)C(CC(C)C)NC(=O)CNC(=O)[C@]1(c2ccccc2)CC1CN1CC[C@@]2(C)c3cc(O)ccc3CC1C2C (some centres not stated)
Resp: 4.21

###

Item-by-item account of Ki
# measurement-target: Mu-type opioid receptor (Rattus norvegicus, UniProt P33535)
# assay-comment: Displacement of [3H]diprenorphine from opioid receptor mu 1 on crude membrane fractions obtained from whole rat brain (minus cerebellum)
# Assay type: tissue-based
Please reply with the bare figure in µM and do not write the unit itself.

Observe how each entry below is paired with its result.
| molecule | Ki, µM |
| --- | --- |
| CCCC(=N)NCCCCCNC(=O)C(CC(C)C)NC(=O)CNC(=O)[C@]1(c2ccccc2)CC1CN1CC[C@@]2(C)c3cc(O)ccc3CC1C2C (some centres undefined) | 7.19 |
| CCCCC(=N)NCCCCCNC(=O)C(CC(C)C)NC(=O)CNC(=O)[C@]1(c2ccccc2)CC1CN1CC[C@@]2(C)c3cc(O)ccc3CC1C2C (some centres undefined) | 2.53 |
| CCCCC(=N)NCCCCNC(=O)C(CC(C)C)NC(=O)[C@]1(c2ccccc2)CC1CN1CC[C@@]2(C)c3cc(O)ccc3CC1C2C (some centres undefined) | 2.13 |

Req: Give the reported Ki for this molecule. CCCC(=N)NCCCNC(=O)C(CC(C)C)NC(=O)CNC(=O)[C@]1(c2ccccc2)CC1CN1CC[C@@]2(C)c3cc(O)ccc3CC1C2C (some centres undefined)
Resp: 10.7

Req: // Input: CCCCC(=N)NCCCCNC(=O)C(CC(C)C)NC(=O)CNC(=O)[C@]1(c2ccccc2)CC1CN1CC[C@@]2(C)c3cc(O)ccc3CC1C2C (some centres undefined) . Output its Ki only.
Resp: 3.31

Req: Could you please provide reported Ki for CCC(=N)NCCCCNC(=O)C(CC(C)C)NC(=O)CNC(=O)[C@]1(c2ccccc2)CC1CN1CC[C@@]2(C)c3cc(O)ccc3CC1C2C (some centres undefined) ? Thanks!
Resp: 7.48

Req: Answer with the recorded Ki of CCCC(=N)NCCCCCCNC(=O)C(CC(C)C)NC(=O)CNC(=O)[C@]1(c2ccccc2)CC1CN1CC[C@@]2(C)c3cc(O)ccc3CC1C2C (some centres undefined) only.
Resp: 2.27

Req: Quickly give me recorded Ki for CC(C)CC(NC(=O)CNC(=O)[C@]1(c2ccccc2)CC1CN1CC[C@@]2(C)c3cc(O)ccc3CC1C2C)C(=O)NCCCCCCNC(=N)N (some centres undefined)
Resp: 3.35

Req: Return value of Ki for input CCC(=N)NCCCCCCNC(=O)C(CC(C)C)NC(=O)[C@]1(c2ccccc2)CC1CN1CC[C@@]2(C)c3cc(O)ccc3CC1C2C (some centres undefined) , no commentary.
Resp: 2.94

Recorded values, source ChEMBL document CHEMBL1133607.
